# TESTED TARGET: FGF-R1 (Homo sapiens, UniProt P11362)
# Sequence (P11362 22-822): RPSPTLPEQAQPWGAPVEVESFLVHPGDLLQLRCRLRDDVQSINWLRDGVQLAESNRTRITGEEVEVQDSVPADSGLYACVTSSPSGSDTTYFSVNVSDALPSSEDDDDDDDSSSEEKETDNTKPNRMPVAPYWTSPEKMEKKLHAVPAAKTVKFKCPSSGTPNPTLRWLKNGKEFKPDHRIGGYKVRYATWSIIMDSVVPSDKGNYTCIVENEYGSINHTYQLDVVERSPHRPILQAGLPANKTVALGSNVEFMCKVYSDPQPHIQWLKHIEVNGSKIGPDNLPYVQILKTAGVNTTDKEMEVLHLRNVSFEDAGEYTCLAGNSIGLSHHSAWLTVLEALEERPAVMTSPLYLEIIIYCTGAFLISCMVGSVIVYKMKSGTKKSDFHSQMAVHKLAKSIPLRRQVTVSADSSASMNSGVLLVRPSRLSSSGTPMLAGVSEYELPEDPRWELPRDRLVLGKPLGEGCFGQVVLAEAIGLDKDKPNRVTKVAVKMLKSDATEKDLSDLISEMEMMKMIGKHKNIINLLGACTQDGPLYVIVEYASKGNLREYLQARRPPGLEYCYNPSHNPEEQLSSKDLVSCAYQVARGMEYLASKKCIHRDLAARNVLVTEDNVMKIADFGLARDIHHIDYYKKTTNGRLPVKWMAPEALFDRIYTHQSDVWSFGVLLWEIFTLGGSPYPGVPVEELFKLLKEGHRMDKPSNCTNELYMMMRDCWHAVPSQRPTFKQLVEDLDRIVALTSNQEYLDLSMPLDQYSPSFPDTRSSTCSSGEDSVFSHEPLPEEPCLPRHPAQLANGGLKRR
# METHOD: Kinase panel: FGF-R1
# Format: biochemical, human/mammalian
# MEASUREMENT SETUP: compound at 10 μM, read-out: % of activity respect of the control
Consider the following compounds and their measured remaining activity at 10 µM readings.
PARAMETER: remaining activity at 10 µM (%)

[[record]]
compound = "O=c1[nH]c2ncc(-c3ccc(F)cc3)nc2n1CC1CC1"
parameter = "remaining activity at 10 µM"
readout_units = "%"
result = 88

[[record]]
compound = "O=c1[nH]c2ncc(-c3ccc(F)cc3)nc2n1C1CCCCC1"
parameter = "remaining activity at 10 µM"
readout_units = "%"
result = 96

[[record]]
compound = "CC(c1ccccc1)n1c(=O)[nH]c2ncc(-c3ccc(F)cc3)nc21 (stereo not shown)"
parameter = "remaining activity at 10 µM"
readout_units = "%"
result = 95

[[record]]
compound = "C[C@H](c1ccccc1)n1c(=O)[nH]c2ncc(-c3ccccc3)nc21"
parameter = "remaining activity at 10 µM"
readout_units = "%"
result = 63


---

Consider the following compounds and their measured remaining activity at 10 µM readings.
# TESTED TARGET: PKBb (Homo sapiens)
# Sequence (P31751 whole entry): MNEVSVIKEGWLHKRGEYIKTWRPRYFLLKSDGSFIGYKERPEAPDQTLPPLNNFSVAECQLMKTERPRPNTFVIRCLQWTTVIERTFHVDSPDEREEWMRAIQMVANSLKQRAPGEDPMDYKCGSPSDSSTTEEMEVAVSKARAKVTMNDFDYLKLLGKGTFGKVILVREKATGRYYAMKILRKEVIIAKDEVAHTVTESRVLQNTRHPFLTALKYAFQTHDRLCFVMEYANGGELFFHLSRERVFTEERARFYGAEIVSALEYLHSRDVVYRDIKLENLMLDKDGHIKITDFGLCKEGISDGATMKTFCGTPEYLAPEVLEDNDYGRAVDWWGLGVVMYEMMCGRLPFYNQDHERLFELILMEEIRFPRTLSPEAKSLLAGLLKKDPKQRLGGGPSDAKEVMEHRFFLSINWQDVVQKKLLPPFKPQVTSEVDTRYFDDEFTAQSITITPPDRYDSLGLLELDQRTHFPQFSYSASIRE
# METHOD: Kinase panel: PKBb
# Format: biochemical, human/mammalian
# MEASUREMENT SETUP: compound at 10 μM, read-out: % of activity respect of the control
PARAMETER: remaining activity at 10 µM (%)

[[record]]
compound = "O=c1[nH]c2ncc(-c3ccc(F)cc3)nc2n1CC1CC1"
parameter = "remaining activity at 10 µM"
result = 120

[[record]]
compound = "C[C@H](c1ccccc1)n1c(=O)[nH]c2ncc(-c3ccccc3)nc21"
parameter = "remaining activity at 10 µM"
result = 100

[[record]]
compound = "CC(c1ccccc1)n1c(=O)[nH]c2ncc(-c3ccc(F)cc3)nc21 (stereo not shown)"
parameter = "remaining activity at 10 µM"
result = 117

[[record]]
compound = "O=c1[nH]c2ncc(-c3ccc(F)cc3)nc2n1C1CCCCC1"
parameter = "remaining activity at 10 µM"
result = 106


---

# TESTED TARGET: BRSK2 (Homo sapiens, UniProt Q8IWQ3)
# Sequence (Q8IWQ3 whole entry): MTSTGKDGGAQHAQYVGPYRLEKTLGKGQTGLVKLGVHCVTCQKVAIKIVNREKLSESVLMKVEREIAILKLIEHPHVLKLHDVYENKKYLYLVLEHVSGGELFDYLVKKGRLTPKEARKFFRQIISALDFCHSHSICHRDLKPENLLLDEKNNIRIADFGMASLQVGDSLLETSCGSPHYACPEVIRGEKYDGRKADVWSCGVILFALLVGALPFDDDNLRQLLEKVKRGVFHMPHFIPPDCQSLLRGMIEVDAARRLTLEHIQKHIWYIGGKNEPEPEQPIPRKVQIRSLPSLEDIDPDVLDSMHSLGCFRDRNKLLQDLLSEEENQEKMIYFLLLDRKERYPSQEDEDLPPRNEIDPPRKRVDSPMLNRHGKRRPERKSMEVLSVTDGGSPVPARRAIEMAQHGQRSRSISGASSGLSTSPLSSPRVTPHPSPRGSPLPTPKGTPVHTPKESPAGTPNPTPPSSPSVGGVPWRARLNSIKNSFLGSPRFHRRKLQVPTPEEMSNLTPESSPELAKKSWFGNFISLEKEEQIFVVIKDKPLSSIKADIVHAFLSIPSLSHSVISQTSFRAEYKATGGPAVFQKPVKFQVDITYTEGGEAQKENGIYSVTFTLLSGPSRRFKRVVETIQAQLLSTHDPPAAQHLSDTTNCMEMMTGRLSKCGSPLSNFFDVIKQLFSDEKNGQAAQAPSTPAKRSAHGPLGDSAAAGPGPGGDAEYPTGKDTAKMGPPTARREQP
# METHOD: Kinase panel: BRSK2
# Format: biochemical, human/mammalian
# MEASUREMENT SETUP: compound at 10 μM, read-out: % of activity respect of the control
PARAMETER: remaining activity at 10 µM (%)

[[record]]
compound = "O=c1[nH]c2ncc(-c3ccc(F)cc3)nc2n1CC1CC1"
result = 90

[[record]]
compound = "O=c1[nH]c2ncc(-c3ccc(F)cc3)nc2n1C1CCCCC1"
result = 100

[[record]]
compound = "C[C@H](c1ccccc1)n1c(=O)[nH]c2ncc(-c3ccccc3)nc21"
result = 72

[[record]]
compound = "CC(c1ccccc1)n1c(=O)[nH]c2ncc(-c3ccc(F)cc3)nc21 (stereo not shown)"
result = 82


---

Consider the following compounds and their measured remaining activity at 10 µM readings.
# TESTED TARGET: PKA (Homo sapiens, UniProt P17612)
# METHOD: Kinase panel: PKA
# Format: biochemical, human/mammalian
# MEASUREMENT SETUP: compound at 10 μM, read-out: % of activity respect of the control
PARAMETER: remaining activity at 10 µM (%)

[[record]]
compound = "CC(c1ccccc1)n1c(=O)[nH]c2ncc(-c3ccc(F)cc3)nc21 (stereo not shown) [Compound 1]"
parameter = "remaining activity at 10 µM"
result = 87

[[record]]
compound = "C[C@H](c1ccccc1)n1c(=O)[nH]c2ncc(-c3ccccc3)nc21 [Compound 14]"
parameter = "remaining activity at 10 µM"
result = 72

[[record]]
compound = "O=c1[nH]c2ncc(-c3ccc(F)cc3)nc2n1C1CCCCC1 [Compound 12]"
parameter = "remaining activity at 10 µM"
result = 95

[[record]]
compound = "O=c1[nH]c2ncc(-c3ccc(F)cc3)nc2n1CC1CC1 [Compound 10]"
parameter = "remaining activity at 10 µM"
result = 93


---

# TESTED TARGET: UniProtKB Q02750
# Sequence (Q02750 whole entry): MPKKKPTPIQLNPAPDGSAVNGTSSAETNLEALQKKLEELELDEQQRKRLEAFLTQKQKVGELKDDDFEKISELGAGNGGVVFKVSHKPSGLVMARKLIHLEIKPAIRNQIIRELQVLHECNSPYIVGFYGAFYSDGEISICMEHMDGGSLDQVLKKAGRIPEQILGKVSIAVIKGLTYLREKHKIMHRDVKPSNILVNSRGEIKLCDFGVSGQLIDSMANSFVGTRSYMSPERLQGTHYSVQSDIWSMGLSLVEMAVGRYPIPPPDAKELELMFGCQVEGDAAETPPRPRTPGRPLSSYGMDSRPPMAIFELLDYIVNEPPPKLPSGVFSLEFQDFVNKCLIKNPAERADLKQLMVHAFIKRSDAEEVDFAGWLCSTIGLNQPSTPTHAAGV
# METHOD: Kinase panel: MKK1
# Format: biochemical, human/mammalian
# MEASUREMENT SETUP: compound at 10 μM, read-out: % of activity respect of the control
Consider the following molecules and their measured remaining activity at 10 µM readings.
PARAMETER: remaining activity at 10 µM (%)

[[record]]
molecule = "CC(c1ccccc1)n1c(=O)[nH]c2ncc(-c3ccc(F)cc3)nc21 (stereo not shown)"
result = 106

[[record]]
molecule = "O=c1[nH]c2ncc(-c3ccc(F)cc3)nc2n1CC1CC1"
result = 97

[[record]]
molecule = "C[C@H](c1ccccc1)n1c(=O)[nH]c2ncc(-c3ccccc3)nc21"
result = 87

[[record]]
molecule = "O=c1[nH]c2ncc(-c3ccc(F)cc3)nc2n1C1CCCCC1"
result = 62


---

# METHOD: In vivo pharmacokinetics in mice
# Parameters: species or system female NMRI mice
# MEASUREMENT SETUP: mouse, whole blood, ip, 10 mg kg^−1, female NMRI mice, blood; read-out: AUC(0–8) (converted)
PARAMETER: AUC(0-t) (ng·h/mL)

[[record]]
compound = "O=c1[nH]c2ncc(N3CCCCC3)cc2n1C1CCCCC1 [Compound 56]"
result = 883


---

# TESTED TARGET: NEK6 (Homo sapiens)
# Sequence (Q9HC98 whole entry): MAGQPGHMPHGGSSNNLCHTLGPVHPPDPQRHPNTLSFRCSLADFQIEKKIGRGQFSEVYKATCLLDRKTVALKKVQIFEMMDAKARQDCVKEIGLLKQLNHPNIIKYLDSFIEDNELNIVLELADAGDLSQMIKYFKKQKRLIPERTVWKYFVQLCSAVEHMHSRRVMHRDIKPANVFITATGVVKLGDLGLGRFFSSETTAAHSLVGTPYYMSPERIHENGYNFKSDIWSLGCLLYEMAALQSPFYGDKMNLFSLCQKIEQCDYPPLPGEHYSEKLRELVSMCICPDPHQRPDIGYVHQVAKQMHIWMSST
# METHOD: Kinase panel: NEK6
# Type: biochemical, human/mammalian
# MEASUREMENT SETUP: compound at 10 μM, read-out: % of activity respect of the control
Consider the following compounds and their measured remaining activity at 10 µM readings.
PARAMETER: remaining activity at 10 µM (%)

[[record]]
compound = "CC(c1ccccc1)n1c(=O)[nH]c2ncc(-c3ccc(F)cc3)nc21 (stereo not shown) [Compound 1]"
result = 89

[[record]]
compound = "O=c1[nH]c2ncc(-c3ccc(F)cc3)nc2n1C1CCCCC1 [Compound 12]"
result = 94

[[record]]
compound = "O=c1[nH]c2ncc(-c3ccc(F)cc3)nc2n1CC1CC1 [Compound 10]"
result = 86

[[record]]
compound = "C[C@H](c1ccccc1)n1c(=O)[nH]c2ncc(-c3ccccc3)nc21 [Compound 14]"
result = 80


---

# TESTED TARGET: CHK2 (Homo sapiens, UniProt O96017)
# Sequence (O96017 whole entry): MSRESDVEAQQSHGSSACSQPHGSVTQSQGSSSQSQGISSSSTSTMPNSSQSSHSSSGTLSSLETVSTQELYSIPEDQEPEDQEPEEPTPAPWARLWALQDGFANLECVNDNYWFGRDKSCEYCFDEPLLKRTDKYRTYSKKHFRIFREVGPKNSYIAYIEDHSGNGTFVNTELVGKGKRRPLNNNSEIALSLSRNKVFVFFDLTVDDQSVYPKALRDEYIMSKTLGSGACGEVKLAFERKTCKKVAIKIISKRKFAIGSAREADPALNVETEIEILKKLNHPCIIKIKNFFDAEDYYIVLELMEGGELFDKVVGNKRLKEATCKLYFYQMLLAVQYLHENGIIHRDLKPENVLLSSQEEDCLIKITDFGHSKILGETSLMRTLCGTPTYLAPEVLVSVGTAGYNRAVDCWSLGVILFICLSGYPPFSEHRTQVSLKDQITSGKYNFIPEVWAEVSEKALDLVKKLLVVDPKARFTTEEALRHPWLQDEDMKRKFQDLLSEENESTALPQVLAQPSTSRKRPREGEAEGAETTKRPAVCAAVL
# METHOD: Kinase panel: CHK2
# Type: biochemical, human/mammalian
# MEASUREMENT SETUP: compound at 10 μM, read-out: % of activity respect of the control
PARAMETER: remaining activity at 10 µM

[[record]]
molecule = "CC(c1ccccc1)n1c(=O)[nH]c2ncc(-c3ccc(F)cc3)nc21 (stereo not shown)"
tested_target = "CHK2 (Homo sapiens, UniProt O96017)"
parameter = "remaining activity at 10 µM"
result = "97%"

[[record]]
molecule = "O=c1[nH]c2ncc(-c3ccc(F)cc3)nc2n1CC1CC1"
tested_target = "CHK2 (Homo sapiens, UniProt O96017)"
parameter = "remaining activity at 10 µM"
result = "97%"

[[record]]
molecule = "O=c1[nH]c2ncc(-c3ccc(F)cc3)nc2n1C1CCCCC1"
tested_target = "CHK2 (Homo sapiens, UniProt O96017)"
parameter = "remaining activity at 10 µM"
result = "96%"

[[record]]
molecule = "C[C@H](c1ccccc1)n1c(=O)[nH]c2ncc(-c3ccccc3)nc21"
tested_target = "CHK2 (Homo sapiens, UniProt O96017)"
parameter = "remaining activity at 10 µM"
result = "93%"


---

# TESTED TARGET: SmMLCK (Homo sapiens, UniProt Q15746)
# Sequence (Q15746 923-1914): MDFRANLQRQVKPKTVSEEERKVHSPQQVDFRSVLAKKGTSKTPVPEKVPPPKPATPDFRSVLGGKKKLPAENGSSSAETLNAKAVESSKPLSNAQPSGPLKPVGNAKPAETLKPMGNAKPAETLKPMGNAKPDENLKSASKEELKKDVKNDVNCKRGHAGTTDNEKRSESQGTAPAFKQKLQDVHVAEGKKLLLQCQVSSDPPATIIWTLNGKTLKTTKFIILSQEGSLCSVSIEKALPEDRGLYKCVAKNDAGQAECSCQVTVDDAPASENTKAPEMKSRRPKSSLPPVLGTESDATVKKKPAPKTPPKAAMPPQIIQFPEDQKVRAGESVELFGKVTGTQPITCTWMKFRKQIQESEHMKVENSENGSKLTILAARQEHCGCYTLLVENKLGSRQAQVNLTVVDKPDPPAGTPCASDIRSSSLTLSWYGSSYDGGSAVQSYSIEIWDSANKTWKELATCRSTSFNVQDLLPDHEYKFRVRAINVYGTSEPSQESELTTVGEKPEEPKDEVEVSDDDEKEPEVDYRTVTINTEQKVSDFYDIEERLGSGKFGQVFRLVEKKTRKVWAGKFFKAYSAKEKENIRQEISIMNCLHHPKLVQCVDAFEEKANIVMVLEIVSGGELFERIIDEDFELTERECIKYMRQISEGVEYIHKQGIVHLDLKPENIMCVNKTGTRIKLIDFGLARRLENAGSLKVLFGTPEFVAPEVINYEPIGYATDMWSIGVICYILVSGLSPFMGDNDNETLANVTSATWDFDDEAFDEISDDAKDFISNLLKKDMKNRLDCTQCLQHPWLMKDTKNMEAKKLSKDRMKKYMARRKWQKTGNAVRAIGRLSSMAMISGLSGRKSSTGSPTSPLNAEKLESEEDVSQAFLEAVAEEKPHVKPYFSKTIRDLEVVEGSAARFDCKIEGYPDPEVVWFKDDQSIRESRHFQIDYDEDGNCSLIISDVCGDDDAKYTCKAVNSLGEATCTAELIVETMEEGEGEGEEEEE
# METHOD: Kinase panel: SmMLCK
# Assay type: biochemical, human/mammalian
# MEASUREMENT SETUP: compound at 10 μM, read-out: % of activity respect of the control
Consider the following compounds and their measured remaining activity at 10 µM readings.
PARAMETER: remaining activity at 10 µM (%)

[[record]]
compound = "C[C@H](c1ccccc1)n1c(=O)[nH]c2ncc(-c3ccccc3)nc21 [Compound 14]"
tested_target = "SmMLCK (Homo sapiens, UniProt Q15746)"
readout_units = "%"
result = 64

[[record]]
compound = "O=c1[nH]c2ncc(-c3ccc(F)cc3)nc2n1C1CCCCC1 [Compound 12]"
tested_target = "SmMLCK (Homo sapiens, UniProt Q15746)"
readout_units = "%"
result = 89

[[record]]
compound = "O=c1[nH]c2ncc(-c3ccc(F)cc3)nc2n1CC1CC1 [Compound 10]"
tested_target = "SmMLCK (Homo sapiens, UniProt Q15746)"
readout_units = "%"
result = 74

[[record]]
compound = "CC(c1ccccc1)n1c(=O)[nH]c2ncc(-c3ccc(F)cc3)nc21 (stereo not shown) [Compound 1]"
tested_target = "SmMLCK (Homo sapiens, UniProt Q15746)"
readout_units = "%"
result = 80


---

Consider the following molecules and their measured remaining activity at 10 µM readings.
# TESTED TARGET: p38g MAPK (Homo sapiens, UniProt P53778)
# Sequence (P53778 1-367): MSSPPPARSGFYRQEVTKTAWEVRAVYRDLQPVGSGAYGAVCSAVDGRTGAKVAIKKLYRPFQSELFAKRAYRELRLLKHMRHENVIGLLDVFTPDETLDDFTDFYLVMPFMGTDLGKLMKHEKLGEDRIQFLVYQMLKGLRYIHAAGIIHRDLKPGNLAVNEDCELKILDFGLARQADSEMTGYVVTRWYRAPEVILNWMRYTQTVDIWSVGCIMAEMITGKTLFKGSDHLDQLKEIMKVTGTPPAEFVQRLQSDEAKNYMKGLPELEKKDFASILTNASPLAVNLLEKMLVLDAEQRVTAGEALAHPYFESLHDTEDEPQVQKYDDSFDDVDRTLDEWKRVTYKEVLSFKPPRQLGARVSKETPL
# METHOD: Kinase panel: p38g MAPK
# Assay type: biochemical, human/mammalian
# MEASUREMENT SETUP: compound at 10 μM, read-out: % of activity respect of the control
PARAMETER: remaining activity at 10 µM (%)

[[record]]
molecule = "CC(c1ccccc1)n1c(=O)[nH]c2ncc(-c3ccc(F)cc3)nc21 (stereo not shown) [Compound 1]"
parameter = "remaining activity at 10 µM"
result = 98

[[record]]
molecule = "O=c1[nH]c2ncc(-c3ccc(F)cc3)nc2n1CC1CC1 [Compound 10]"
parameter = "remaining activity at 10 µM"
result = 94

[[record]]
molecule = "O=c1[nH]c2ncc(-c3ccc(F)cc3)nc2n1C1CCCCC1 [Compound 12]"
parameter = "remaining activity at 10 µM"
result = 98

[[record]]
molecule = "C[C@H](c1ccccc1)n1c(=O)[nH]c2ncc(-c3ccccc3)nc21 [Compound 14]"
parameter = "remaining activity at 10 µM"
result = 91

